The origin of these recorded values is PubChem BioAssay (NCI).

Tested on: NCI-H460 lung
Return exactly one item of yes for active, no for inactive

Use the examples below as a reference point.
CCC(=O)c1c(C(F)(F)F)n([O-])c2cc(F)c(F)cc2[n+]1=O; no
Cn1cc(C2=C(c3cn(CCCCCSC(=N)N)c4ccccc34)C(=O)NC2=O)c2ccccc21; no
O=C(COc1cccc(/C=C2\CSc3ccccc3C2=O)c1)Nc1nccs1; no
COC(=O)[C@H]1CCCN1C(=O)[C@H]1CCCN1C(=O)[C@H](Cc1c[nH]c2ccccc12)NC(=S)Nc1cc(C(F)(F)F)cc(C(F)(F)F)c1; no

Per the records of this test, what outcome belongs to COc1ccc(N=N/C(C(=O)C(F)(F)F)=C(\O)c2ccc(Cl)cc2)cc1 ? no

Assay outcome for CN1C(=O)C2(c3ccccc31)N(c1ccc(Cl)cc1)C(=O)C2(c1ccccc1)c1ccccc1 (centres undefined) : what was it? no

Entry NC(=S)c1c(N)n(C2OC(CO)C(O)C2O)c2ncnc(N)c12 (centres undefined) : call = ? yes

// param item: CC(=O)[CH-]C(=O)c1ccccc1.CC(=O)[CH-]C(=O)c1ccccc1.C[C@]12CCC(=O)C=C1CC[C@@H]1C2CC[C@@]2(C)C1CC[C@]2(C)[O-].C[C@]12CCC(=O)C=C1CC[C@@H]1C2CC[C@@]2(C)C1CC[C@]2(C)[O-].Cl.[Ti+4] (some centres undefined) ; yields the recorded call no

In this assay, the call recorded for C=CC(=O)N1CC2(CC(n3nc(-c4ccc5c(cnn5C)c4)c(-c4c(Cl)c(C)cc5[nH]ncc45)c3C)C2)C1 was what? no

----------
System: SK-MEL-28 melanoma
assayOverview: NCI tumour cell line growth inhibition, 48 h
Provide the reported GI50 of each item.

Observe how each entry below is paired with its result.
COc1cc2c(=O)[nH]c3cc([N+](=O)[O-])ccc3c2cc1[N+](=O)[O-]; > 100000 nM
CCCCCCCCCCCC[n+]1ccc2ccccc2c1; 1470 nM
c1ccc2c3c([nH]c2c1)C(c1ccc(C2NCCc4c2[nH]c2ccccc42)cc1)NCC3 (configuration not stated); 1680 nM
O=C(CN1C(=O)S/C(=C\C(Cl)=C\c2ccccc2)C1=O)NC1C=CS(=O)(=O)C1 (configuration not stated); 1810 nM
CCC(=O)c1c(C(F)(F)F)n([O-])c2cc(F)c(F)cc2[n+]1=O; 1320 nM
CN1CCN(CCCOc2cccc3nc(Nc4ccc(Cl)c(C(F)(F)F)c4)ccc23)CC1; 1390 nM

I need GI50 for every entry listed below, if you could help.
1. Cc1nc2ccccc2c(/C=C/c2ccc(Cl)cc2)c1C(=O)/C=C/c1ccc(Cl)cc1
2. N#CC1c2ccccc2C=CN1C(=O)N(c1ccccc1)c1ccccc1 (configuration not stated)
3. O=C1NC(=NCCCc2ccccc2)S/C1=C\c1ccc2ncccc2c1
4. CSc1ccc2c(c1)C(N1CCN(C)CC1)Cc1ccccc1S2 (configuration not stated)
5. COc1nnc2ccc(N3CCC(c4ccc(OCCN5CCN(C)C(=O)[C@H]5C)cc4)CC3)nn12
6. CCCCCCC[CH2][Sn]1([CH2]CCCCCCC)[O]C(=O)c2cccnc2[O]1

1. 1670 nM
2. 2430 nM
3. 6510 nM
4. 1640 nM
5. 522 nM
6. > 100000 nM

----------
Tested on: ACHN renal
assayOverview: NCI tumour cell line growth inhibition, 48 h
measurementKind: TGI (µM)
Answers are plain numbers, in µM.

Examples with their reported TGI follow.
CN(CC(=O)N(Cc1ccc(C2CCCCC2)cc1)c1ccc(C(=O)O)cc1)S(=O)(=O)c1c(F)c(F)c(F)c(F)c1F; 3.15
CC1CC(=O)N(N(C)C)C(C#N)(C#N)C1(C#N)C#N (configuration not stated); 29.3
CO[C@H]1C[C@@H]2CC[C@@H](C)[C@@](O)(O2)C(=O)C(=O)N2CCCC[C@H]2C(=O)O[C@H]([C@H](C)C[C@@H]2CC[C@@H](OCCO)[C@H](OC)C2)CC(=O)[C@H](C)C=C(C)[C@@H](O)[C@@H](OC)C(=O)[C@H](C)C[C@H](C)/C=C/C=C/C=C1C; 18.8

Tell me the measured TGI of CN(CCCNC(=O)CCOCCOCCOCCNC(=O)Cc1ccc2ccc3cccc4ccc1c2c34)CCCNc1cc(-c2ccc3ccccc3c2)nc2ccccc12 , please. 2.2

----------
For each of the compounds below, state its GI50.
System: OVCAR-5 ovarian
assayOverview: NCI tumour cell line growth inhibition, 48 h

O=C1/C=C/[C@@H](O)[C@@H]2C[C@@H](O)C[C@H]2/C=C/CCC[C@H](C(F)(F)F)O1; 0.933 µM
COc1cc2c(=O)[nH]c3cc([N+](=O)[O-])ccc3c2cc1[N+](=O)[O-]; 63.4 µM
CSc1ccc2c(c1)C(N1CCN(C)CC1)Cc1ccccc1S2 (stereo unspecified); 1.95 µM
O=C(CC(Cl)=C(Cl)Cl)c1cccc(Cl)c1Cl; > 100 µM
CCC(=O)c1c(C(F)(F)F)n([O-])c2cc(F)c(F)cc2[n+]1=O; 1.32 µM
CCn1c(-c2nonc2N)nc2cncc(C(=O)N3CC[C@H](N)C3)c21; > 25 µM
O=C1NC(=NCCCc2ccccc2)S/C1=C\c1ccc2ncccc2c1; 8.09 µM
COc1nnc2ccc(N3CCC(c4ccc(OCCN5CCN(C)C(=O)[C@H]5C)cc4)CC3)nn12; 0.492 µM
COc1cc(-c2nn(-c3cccc(NC(=O)c4ccc(Cl)c(C(F)(F)F)c4)c3)cc2-c2ccncc2)ccc1Cl; > 28.4 µM
CN1CCN(CCCOc2cccc3nc(Nc4ccc(Cl)c(C(F)(F)F)c4)ccc23)CC1; 1.85 µM

Okay, here is my list. What is GI50 for each of these?
1. CCCCCCCCCCCC[n+]1ccc2ccccc2c1
2. COC(=O)[C@H]1CCCN1C(=O)[C@H]1CCCN1C(=O)[C@H](Cc1c[nH]c2ccccc12)NC(=S)Nc1cc(C(F)(F)F)cc(C(F)(F)F)c1
3. c1ccc2c3c([nH]c2c1)C(c1ccc(C2NCCc4c2[nH]c2ccccc42)cc1)NCC3 (stereo unspecified)

1: 1.34 µM; 2: 2.95 µM; 3: 1.81 µM

----------
Test system: HS 578T breast
assayOverview: NCI tumour cell line growth inhibition, 48 h
measurementKind: TGI

Reference set, count: 4
NC(=S)c1c(N)n(C2OC(CO)C(O)C2O)c2ncnc(N)c12 (stereo not given); 0.648 µM
CSc1c(C(=O)Nc2ccc(Cl)cc2)c(N)n(N)c(=O)c1C#N; > 100 µM
CCOC(=O)c1cnc2c(C)cccc2c1Nc1ccc(C(C)=O)cc1; 58.4 µM
CN1C(=O)C2(c3ccccc31)N(c1ccc(Cl)cc1)C(=O)C2(c1ccccc1)c1ccccc1 (stereo not given); > 100 µM

From here, focus on the item given below.
Look up TGI: C=CC(=O)N1CC2(CC(n3nc(-c4ccc5c(cnn5C)c4)c(-c4c(Cl)c(C)cc5[nH]ncc45)c3C)C2)C1 62.9 µM

----------
System: UACC-257 melanoma
assayOverview: NCI tumour cell line growth inhibition, 48 h; in the data active means GI50 below about 0.43 µM; inactive means the rest
Just give me one of these, please: t for active, f for inactive

COC(=O)[C@H]1CCCN1C(=O)[C@H]1CCCN1C(=O)[C@H](Cc1c[nH]c2ccccc12)NC(=S)Nc1cc(C(F)(F)F)cc(C(F)(F)F)c1; f

What call does the record list for Cn1cc(C2=C(c3cn(CCCCCSC(=N)N)c4ccccc34)C(=O)NC2=O)c2ccccc21 ? f

Per the records of this test, what outcome belongs to CCC(=O)c1c(C(F)(F)F)n([O-])c2cc(F)c(F)cc2[n+]1=O ? f

Which result was noted for this molecule in the test: O=C(COc1cccc(/C=C2\CSc3ccccc3C2=O)c1)Nc1nccs1 f

Recorded call for Oc1[nH]c2ccccc2c1/C=c1/cc2c(c(-c3ccc(F)cc3)n1)=Nc1ccccc1-2 ? f

Called result for c1ccc2c3c([nH]c2c1)C(c1ccc(C2NCCc4c2[nH]c2ccccc42)cc1)NCC3 (configuration not stated) f

Tell me the assay call for COc1ccc(/C(C#N)=C2C=C/C(=N/O)c3ccccc3\2)cc1 please. f

----------
Assign GI50 to each entry below.
System: UACC-62 melanoma
assayOverview: NCI tumour cell line growth inhibition, 48 h

Consider the reported GI50 for these compounds:
CCC(=O)c1c(C(F)(F)F)n([O-])c2cc(F)c(F)cc2[n+]1=O; 571 nM
COc1cc(-c2nn(-c3cccc(NC(=O)c4ccc(Cl)c(C(F)(F)F)c4)c3)cc2-c2ccncc2)ccc1Cl; 1600 nM
CCCCCCCCCCCCCC[C@@H](O)[C@H]1CC[C@H]([C@H]2CC[C@H]([C@H](O)CCCCCC[C@@H](O)CC3=C[C@H](C)OC3=O)O2)O1; > 25000 nM

Shifting focus to the compound that follows.
Request - read-out GI50 | tested on UACC-62 melanoma | compound CC(=O)[CH-]C(=O)c1ccccc1.CC(=O)[CH-]C(=O)c1ccccc1.C[C@]12CCC(=O)C=C1CC[C@@H]1C2CC[C@@]2(C)C1CC[C@]2(C)[O-].C[C@]12CCC(=O)C=C1CC[C@@H]1C2CC[C@@]2(C)C1CC[C@]2(C)[O-].Cl.[Ti+4] (some centres undefined) 12800 nM
